Data credit: PubChem BioAssay (NCI)

Tested on: CAKI-1 renal
protocol.description: NCI tumour cell line growth inhibition, 48 h; in the data active means GI50 below about 0.43 µM; inactive means the rest
Would you mind answering with one of these outcomes? active, inactive

Reference set (10 entries):
molecule	discrete.label
O=C(O)c1cc2cc(OCc3ccccc3)ccc2[nH]1	inactive
O=C(CCl)Nc1ccc2c(Nc3cc(O)ccc3Cl)ncnc2c1	inactive
COc1ccc(C(=O)C2C(C#N)C(C#N)C3C=Cc4ccccc4N32)cc1 (stereo not drawn)	inactive
N#Cc1c(-c2ccc(Cl)cc2)cc(-c2cc(O)ccc2O)nc1N	inactive
O=c1c2c3c(sc2n2c(CCl)nnc2n1Cc1ccccc1)CCCC3	inactive
O=c1c2sc3ccccc3c2nnn1-c1ccc(F)c(Cl)c1	inactive
CCN(CC)CCCNc1ccc2ncn3c4ccc(O)cc4c(=O)c1c23	active
Nc1c(C(=O)Nc2ccccc2)sc2nc3c(cc12)C(O)CCC3 (stereo not drawn)	active
C[C@@H]1CCC2[C@@H](C)[C@@H](OC3CCC(O)CC3)OC3O[C@@]4(C)CCC1[C@]32OO4 (stereo partly drawn)	inactive
Cc1ccc2nc3ccccc3c(NCc3ccccc3)c2c1	inactive

Prompt: Check the results log: what was the call for COC(=O)c1ccc([C@H]2c3[nH]c4ccccc4c3C[C@H](C(=O)OC)N2C(=O)CCl)cc1 ?
Completion: active

Prompt: Check the results log: what was the call for NC(=O)[C@@H](CCC(F)(F)F)N(Cc1ccc(-c2ncon2)cc1F)S(=O)(=O)c1ccc(Cl)cc1 ?
Completion: inactive

Prompt: Check the results log: what was the call for O=[N+]([O-])[O][Sn]([O][Sn]([O][N+](=O)[O-])([c]1ccccc1)[c]1ccccc1)([c]1ccccc1)[c]1ccccc1 ?
Completion: inactive

----------
System: HCC-2998 colon
protocol.description: NCI tumour cell line growth inhibition, 48 h
experimental.readout: TGI (µM)
Could you give me the number in µM? Just the number is fine.

molecule	experimental.readout	obs.value
CCOC(=O)C(C(N)=O)c1nc2cc([N+](=O)[O-])ccc2nc1/C=C(\O)c1ccccc1 (stereo not given)	TGI	21.7

Turning now to a further record.
Prompt: Retrieve TGI on HCC-2998 colon; query C[N+](C)(C)CC1CCc2ccccc2C1=O (stereo not given)
Completion: 28.8

----------
Tested on: OVCAR-8 ovarian
protocol.description: NCI tumour cell line growth inhibition, 48 h
experimental.readout: TGI

# count of solved cases: 4
molecule	target.under.test	TGI
CCN(CCCl)CCCCNc1c2ccccc2nc2ccc(OC)cc12	OVCAR-8 ovarian	1.94 µM
Cc1cc(C)c(S(=O)(=O)N2CCN(c3cc4c(cc3F)c(=O)c(C(=O)O)cn4C3CC3)CC2)c(C)c1	OVCAR-8 ovarian	> 100 µM
CCCCCCCCCCCCCCNc1nc(C(=O)OCC)ncc1-c1ccc(C(F)(F)F)cc1	OVCAR-8 ovarian	> 100 µM
C=CCCC(CCC=C)(C(=O)O)C(=O)O	OVCAR-8 ovarian	> 100 µM

Prompt: Fill in reported TGI for this entry: O=[N+]([O-])c1ccc(/C(=C\c2ccccc2)Cn2ccnc2)cc1
Completion: > 100 µM

Prompt: Fill in reported TGI for this entry: CC#C[C@@]1(O)CCCCC1O (some centres not stated)
Completion: > 100 µM

Prompt: Fill in reported TGI for this entry: O=c1ccc2ccc(O)c3c4c(=O)ccc5ccc(O)c(c1c23)c54
Completion: 10.7 µM

Prompt: Fill in reported TGI for this entry: CCOC(=O)C1C=C1C(C)(C)O (configuration not stated)
Completion: > 10 µM

Prompt: Fill in reported TGI for this entry: Cc1ccc(S(=O)(=O)N2CCCN(S(=O)(=O)c3ccc(C)cc3)CC2)cc1
Completion: > 100 µM

Prompt: Fill in reported TGI for this entry: Cn1cccc(C(=O)c2ccccc2)c1=O
Completion: > 100 µM

Prompt: Fill in reported TGI for this entry: C[n+]1cn(-c2ccc([N+](=O)[O-])cn2)c2ccccc21
Completion: > 100 µM

Prompt: Fill in reported TGI for this entry: O=C1/C(=C/c2ccc(Cl)cc2)CCC/C1=C\c1ccc(O)c(CN2CCCCC2)c1
Completion: 48.8 µM

Prompt: Fill in reported TGI for this entry: COC1OC(C)C(OC(=O)C(C)(C)C)C(OS(=O)(=O)c2ccc(C)cc2)C1OS(=O)(=O)c1ccc(C)cc1 (configuration not stated)
Completion: > 100 µM

Prompt: Fill in reported TGI for this entry: COc1ccc(NC(=O)c2sc3nc(C)c(C(=O)/C=C/c4ccccc4)cc3c2N)cc1
Completion: 5.22 µM

Prompt: Fill in reported TGI for this entry: Cc1nnc2sc(Cc3cnc(N)s3)nn12
Completion: > 100 µM

Prompt: Fill in reported TGI for this entry: O=S1[C@H](c2ccccc2)c2c(-c3ccccc3)sc(-c3ccccc3)c2[C@@H]1c1ccccc1 (some centres not stated)
Completion: > 100 µM

Prompt: Fill in reported TGI for this entry: c1ccc(C[n+]2ccc3c(c2)CCCC3)cc1
Completion: > 100 µM

Prompt: Fill in reported TGI for this entry: CCOC1c2cc(OC)c(OC)cc2-c2ccc3ccccc3c2N1C (configuration not stated)
Completion: 31.6 µM

Prompt: Fill in reported TGI for this entry: COc1cc(C(=O)/C=C/c2cc(-c3cc(OC)c(OC)c(OC)c3)n[nH]2)cc(OC)c1OC
Completion: 3.28 µM

Prompt: Fill in reported TGI for this entry: CO/N=C(\COc1ccc2c(=O)cc(-c3ccccc3)oc2c1)c1ccc(F)cc1
Completion: > 100 µM

----------
Test system: MCF7 breast
protocol.description: NCI tumour cell line growth inhibition, 48 h
Response key: fulfilled means TGI >= 30 µM; not fulfilled means TGI < 30 µM.

Reference set (5 entries):
compound	target.under.test	discrete.label
C[C@]12CC[C@H](O)C[C@@H]1CC[C@@H]1[C@@H]2CC[C@]2(C)[C@@H](c3cc(C(F)(F)F)n[nH]3)CC[C@@H]12	MCF7 breast	not fulfilled
COC(=O)CCCc1ccc2c(c1)CC1(Cc3ccccc3C1)C2	MCF7 breast	fulfilled
O=c1c2c3c(sc2n2c(CCl)nnc2n1Cc1ccccc1)CCCC3	MCF7 breast	not fulfilled
COc1ccc2oc(=O)cc(C3c4ccc([nH]4)C(c4cc(=O)oc5ccc(OC)cc45)c4ccc([nH]4)C(c4cc(=O)oc5ccc(OC)cc45)c4ccc([nH]4)C(c4cc(=O)oc5ccc(OC)cc45)c4ccc3[nH]4)c2c1 (stereo not given)	MCF7 breast	not fulfilled
CC1=Nc2c(N)nc(N)nc2N(C)C1	MCF7 breast	fulfilled

Prompt: Quick check, TGI >= 30 µM? Cn1cc(-c2ccc(-c3cn(C)c4ncccc34)[nH]2)c2cccnc21
Completion: fulfilled

Prompt: Quick check, TGI >= 30 µM? COc1nc(SC)nc2c1C(O)n1c(nc3ccccc31)S2 (stereo not given)
Completion: fulfilled

Prompt: Quick check, TGI >= 30 µM? COc1cc2c3c(n(CCCNCCCNCCCn4c5c(c6cc(OC)c(OC)cc6c4=O)C(=O)c4ccccc4-5)c(=O)c2cc1OC)-c1ccccc1C3=O
Completion: fulfilled

Prompt: Quick check, TGI >= 30 µM? O=C1N=C(c2c(-c3[nH]c(=O)c4ccc(Br)cc4c3O)c(O)c3ccccc3c2O)C(=O)c2cc(Br)ccc21
Completion: not fulfilled

Prompt: Quick check, TGI >= 30 µM? O=C(CCl)Nc1ccc2c(Nc3cc(O)ccc3Cl)ncnc2c1
Completion: not fulfilled

Prompt: Quick check, TGI >= 30 µM? Cc1cc(=O)[nH]c(NN2C(Cl)C(=O)C2c2ccc(O)cc2)n1 (stereo not given)
Completion: not fulfilled

Prompt: Quick check, TGI >= 30 µM? N#CCCN1C/C(=C/c2ccccc2)C(=O)/C(=C/c2ccccc2)C1
Completion: not fulfilled

Prompt: Quick check, TGI >= 30 µM? Clc1ccc(CN2COc3c(ccc4cccnc34)C2)cc1Cl
Completion: not fulfilled

Prompt: Quick check, TGI >= 30 µM? CCCCCC/C=C\CCCCCCCCCc1cc(O)cc(OC)c1O
Completion: not fulfilled

----------
System: UO-31 renal
protocol.description: NCI tumour cell line growth inhibition, 48 h
Items are presented alongside their recorded TGI.

# count of solved cases: 3
compound	TGI
CCCCCCCCCC1CC(=O)Oc2cccc(O)c21 (centres undefined)	75.1 µM
C=CCCCC(=O)CCC(=O)OCC1O[C@@H](O[C@@H]2C(O)[C@@H](OC(C)=O)C(C)O[C@H]2O[C@H](CC=C)CCCCC)C(O)[C@@H](OC(=O)/C(C)=C/C)[C@@H]1OC(=O)/C=C/c1ccccc1 (some centres undefined)	> 50 µM
COc1cc(/C=C2\CCC(C)C3=C(c4cc(OC)c(OC)c(OC)c4)C(C#N)=C(N)OC32)cc(OC)c1OC (centres undefined)	> 100 µM

Prompt: Fill in reported TGI for this entry: CCCCCCC(C)c1ccc2c(c1)C(=O)c1nc3ccncc3c(=O)n1-2 (centres undefined)
Completion: > 35.7 µM

----------
Test system: CCRF-CEM leukemia
protocol.description: NCI tumour cell line growth inhibition, 48 h
experimental.readout: TGI

Prompt: Retrieve TGI on CCRF-CEM leukemia; query Cc1ccnc2[nH]c(-c3cccc4ccccc34)cc(=O)c12
Completion: > 100 µM

Prompt: Retrieve TGI on CCRF-CEM leukemia; query Cn1ccnc1C(=O)/C=C/c1ccc(C(=O)Nc2ccccc2F)cc1
Completion: 7.54 µM

Prompt: Retrieve TGI on CCRF-CEM leukemia; query NC(Cc1ccc(OCc2ccccc2)cn1)C(=O)OCc1ccccc1 (stereo unspecified)
Completion: > 100 µM

Prompt: Retrieve TGI on CCRF-CEM leukemia; query CCCCCc1c(Cl)nc(Cl)nc1Cl
Completion: 0.65 µM

Prompt: Retrieve TGI on CCRF-CEM leukemia; query O=C1C(C(Nc2ccccc2)c2ccccc2)=C([O-])c2ccccc21.O=C1C(C(Nc2ccccc2)c2ccccc2)=C([O-])c2ccccc21.[Co+2] (stereo unspecified)
Completion: > 100 µM

Prompt: Retrieve TGI on CCRF-CEM leukemia; query CC1=Nc2c(N)nc(N)nc2N(C)C1
Completion: > 100 µM

Prompt: Retrieve TGI on CCRF-CEM leukemia; query O=c1[nH]c2ccccc2nc1CBr
Completion: 1.45 µM

Prompt: Retrieve TGI on CCRF-CEM leukemia; query c1ccc(C2=NOC3COc4ccccc4OCC23)cc1 (stereo unspecified)
Completion: > 100 µM

Prompt: Retrieve TGI on CCRF-CEM leukemia; query O=C1c2ccccc2C2(O)Nc3c(ccc4ccccc34)C12O (stereo unspecified)
Completion: > 100 µM

Prompt: Retrieve TGI on CCRF-CEM leukemia; query O=C(/C=C/c1ccc2c(c1)OCO2)NCc1ccco1
Completion: > 100 µM

Prompt: Retrieve TGI on CCRF-CEM leukemia; query Nc1nc(Cl)c(/C=N\O)c(NCC2(CO)CC(=O)C2)n1
Completion: > 100 µM
